# Test system: ER-alpha MCF7
# assay method text: ER-alpha MCF7 HCS EC50; stated as measured by in vitro cell proliferation assays of Examples 902 and 903
# Format: cell-based
# test parameters: Homo sapiens, MCF7, MCF7 cells; Table 2
value type: EC50 (pM)
Just the number in pM, nothing appended.

Worked set:
{"smi": "C[C@@H]1Cc2c([nH]c3ccccc23)[C@@H](c2c(F)cc(OC3CN(CCCCCF)C3)cc2F)N1CC(C)(C)F", "target under test": "ER-alpha MCF7", "EC50, pM": 442}
{"smi": "C[C@@H]1Cc2c([nH]c3ccccc23)[C@@H](c2ccc(NC3CN(CCCF)C3)cc2)N1S(C)(=O)=O", "target under test": "ER-alpha MCF7", "EC50, pM": 708}
{"smi": "C[C@H]1Cc2c([nH]c3cc(F)ccc23)[C@H](c2c(F)cc(NC3CN(CCCF)C3)cc2F)N1CC(F)(F)CO", "target under test": "ER-alpha MCF7", "EC50, pM": 6380}

Note: attention shifts to another entry.
Input line: Provide the documented EC50 with ER-alpha MCF7 as the system for C[C@@H]1Cc2c([nH]c3ccccc23)[C@@H](c2c(F)cc(OC3CN(CCC4COC4)C3)cc2F)N1CC(C)(C)F
Output line: 66
